Attribution: PubChem BioAssay AID1159580

test: chemical genetic growth profiling, strain panel (AID 1159580);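 also: tested at 20 µM; growth read once vehicle control cultures reached saturation at 30 °C; 1 = growth at the plate median or of vehicle wells; lower values mean less growth of the strain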; conditions: S. cerevisiae deletion strains, growth OD, locus YAR019C, strain CDC15, hits give low values
About 2,000 (36%) of roughly 5,500 compounds were called active. Inconclusive results (about 18%) are left out. The list shows a part of the results.
// values below are reported normalized growth
quantity name: normalized growth

> print(dat)
                                    compound      quantity.name  value
 1  N#CC1=C(N)C(C#N)(C#N)C2(CCCCC2)C2CCCC=C12 (configuration not stated)  normalized growth  0.984
 2  CCCCCc1ccc(S(=O)(=O)Nc2ccc3c(c2)C(=O)OC3)cc1  normalized growth  0.991
 3  CC(C)(O)C#Cc1ccc(/C=N\Nc2c(Cl)cc(Cl)cc2Cl)cc1  normalized growth  0.982
 4      O=C(Nc1ccc(Cl)cc1Cl)c1cnccc1C(F)(F)F  normalized growth  0.978
 5        O=C1/C(=C/c2c(F)cccc2Cl)Cc2ccccc21  normalized growth  0.965
 6       CC(C)(O)C#Cc1ccc(/C=N\Nc2ccccc2)cc1  normalized growth  0.966
 7  CCCCCCCC1CCC/C1=N/OC(=O)c1cccs1 (configuration not stated)  normalized growth   1.01
 8  OC(c1ccc(C(F)(F)F)cc1)c1cccc(C(F)(F)F)c1 (configuration not stated)  normalized growth  0.972
 9  Cc1cc(C(=O)O/N=C(/N)c2ccc(C(C)(C)C)cc2)no1  normalized growth  0.972
10  COc1cc(N=Cc2cc(Cl)cc(Cl)c2OS(=O)(=O)c2ccc(C)cc2)c(OC)cc1Cl  normalized growth  0.935
11  CCC1CCC(C)N(C(=S)Nc2ccc(Br)cc2C)C1 (configuration not stated)  normalized growth  0.965
12            N=C(N)SCc1nc(-c2ccc(Cl)cc2)no1  normalized growth  0.979
13  CSc1c(C#N)c(-c2ccc(Cl)cc2)nn1C(=O)c1ccccc1Cl  normalized growth  0.966
14    N/C(=N/OC(=O)c1ccc(Cl)cc1)c1ccc(F)cc1F  normalized growth  0.896
15    O=C(Nc1cccc(C(F)(F)F)c1)Oc1ccc(F)cc1Cl  normalized growth  0.977
16       CCOC(=O)NC(=S)NC12CC3CC(CC(C3)C1)C2  normalized growth  0.978
17  CC12CC[C@@H](O)CC1=CC[C@@H]1C2CCC2(C)C(=O)CC[C@@H]12 (some centres not stated)  normalized growth   1.01
18  CC1(C)C/C(=N/Nc2ccc(C(F)(F)F)cc2)c2cc(C(C)(C)C)c(O)c(O)c2O1  normalized growth  0.989
19  COc1cc(C(=O)Oc2c(Cl)cc(Cl)cc2C=Nc2cccc([N+](=O)[O-])c2)cc(OC)c1OC  normalized growth  0.959
20  COc1cc(N=Cc2cc(Cl)cc(Cl)c2OC(=O)c2cc(OC)c(OC)c(OC)c2)c(OC)cc1Cl  normalized growth  0.965
21  CCOC(=O)CCc1cc(N=Cc2cc(Br)ccc2O)c(O)c(N=Cc2cc(Br)ccc2O)c1  normalized growth  0.963
22      CN(C)/C=C/C(=O)c1ccc(C#Cc2ccccc2)cc1  normalized growth  0.982

====

experiment: chemical genetic growth profiling, strain panel (AID 1159580); settings: S. cerevisiae deletion strains, growth OD, locus YDR335W, strain msn5, hits give low values
In all, about 5,500 compounds went through this assay and about 2,000 (36%) were called active. Roughly 18% stayed inconclusive and do not appear here. This is one part of the list.
quantity name: normalized growth

> print(dat)
                               smiles.input  value
1                c1ccc2[nH]c(-c3cscn3)nc2c1   1.02
2                                 CCOC(N)=O  0.997
3                                  Nc1nccs1  0.978
4         NC(=O)N/N=C\c1ccc([N+](=O)[O-])o1  0.999
5                 O=c1cccc2n1C[C@H]1CNCC2C1   1.01
6  O=C1N=C(O)CN1/N=C\c1ccc(-c2ccc([N+](=O)[O-])cc2)o1  0.985
7  O=C1CN(/N=C\c2ccc([N+](=O)[O-])o2)C(=O)N1  0.986

====

test: chemical genetic growth profiling, strain panel (AID 1159580);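 also: tested at 20 µM; growth read once vehicle control cultures reached saturation at 30 °C; 1 = growth at the plate median or of vehicle wells; lower values mean less growth of the strain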; settings: S. cerevisiae deletion strains, growth OD, locus YNL006W, strain LST8, hits give low values
Hit rate of the full screen: of about 5,500 compounds, about 2,000 (36%) were called active. About 18% were inconclusive and are not listed. Some of the results follow.
quantity name: normalized growth

> print(dat)
                                    compound      quantity.name  value
 1  COc1cc(C(=O)Oc2c(Cl)cc(Cl)cc2C=Nc2cccc(C(F)(F)F)c2)cc(OC)c1OC  normalized growth  0.981
 2  CSc1cccc(N2C(=O)CC(c3c(Cl)cccc3Cl)CC2=O)c1  normalized growth  0.996
 3  Cc1onc(-c2ccccc2Cl)c1-c1nc2ccccc2c(=O)o1  normalized growth  0.982
 4  N#CC1=C(N)C(C#N)(C#N)C2(CCCCC2)C2CCCC=C12 (stereo not given)  normalized growth   0.99
 5  COc1cc(N=Cc2cc(Cl)cc(Cl)c2OC(=O)c2cc(OC)c(OC)c(OC)c2)c(OC)cc1Cl  normalized growth  0.982
 6    O=C(Nc1cccc(C(F)(F)F)c1)Oc1ccc(F)cc1Cl  normalized growth  0.976
 7  O=C(NCc1ccco1)c1csc(C2COc3ccccc3O2)n1 (stereo not given)  normalized growth  0.926
 8  O=C(Nc1ccccn1)c1cc(-c2ccccc2)c(C(F)(F)F)s1  normalized growth   0.94
 9  CCCCCc1ccc(S(=O)(=O)Nc2ccc3c(c2)C(=O)OC3)cc1  normalized growth   0.99
10  O=C(CO/N=C\c1ccc(Cl)cc1Cl)NNC(=S)Nc1cc(Cl)ccc1Cl  normalized growth   0.99

====

assay: chemical genetic growth profiling, strain panel (AID 1159580);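 also: tested at 20 µM; growth read once vehicle control cultures reached saturation at 30 °C; 1 = growth at the plate median or of vehicle wells; lower values mean less growth of the strain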; conditions: S. cerevisiae deletion strains, growth OD, locus YJL164C, strain tpk1, hits give low values
Out of some 5,500 compounds screened, about 2,000 (36%) were called active. About 18% were inconclusive and are not listed. Some of the results follow.
# normalized growth listing for each entry below
quantity name: normalized growth

molecule	quantity name	value
C#C[C@]1(O)CCC2C3CCc4cc(O)ccc4C3CC[C@@]21C (stereo not given in full)	normalized growth	0.952
CC12CCC3C(CC=C4CC(O)CCC43C)C1CCC2=O (stereo not given)	normalized growth	0.845
CC(=O)O[C@H]1CC[C@@]2(C)C(=CCC3C2CC[C@@]2(C)C3CC[C@@H]2C(C)CCCC(C)C)C1 (stereo not given in full)	normalized growth	1.01
O=C1O[C@@H](CO)[C@H](O)[C@@H](O)[C@@H]1O	normalized growth	1.01
NCc1ccc(S(N)(=O)=O)cc1	normalized growth	0.98
O=C(O)CCC(=O)c1ccc(-c2ccccc2)cc1	normalized growth	0.996
CC[C@@]1(C2O[C@@H](C3O[C@@](O)(CC)[C@H](C)C[C@@H]3C)C[C@@H]2C)CC[C@H]([C@]2(C)CCC3(C[C@H](O)[C@@H](C)[C@@H]([C@H](C)[C@@H](OC)[C@H](C)C(=O)O)O3)O2)O1 (stereo not given in full)	normalized growth	0.993
C[C@]12CCC3c4ccc(OS(=O)(=O)O)cc4CCC3C1CCC2=O (stereo not given in full)	normalized growth	0.996
O=C(O)P(=O)(O)O	normalized growth	1
CC[C@]12CCCN3CCc4c(n(c5ccccc45)C(=O)C1)[C@@H]32	normalized growth	0.984

====

Measured normalized growth of individual entries
assay: chemical genetic growth profiling, strain panel (AID 1159580);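 also: tested at 20 µM; growth read once vehicle control cultures reached saturation at 30 °C; 1 = growth at the plate median or of vehicle wells; lower values mean less growth of the strain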; settings: S. cerevisiae deletion strains, growth OD, locus YJL168C, strain set2, hits give low values
Hit rate of the full screen: of about 5,500 compounds, about 2,000 (36%) were called active. About 18% were inconclusive and are not listed. The list shows a part of the results.
quantity name: normalized growth

> print(dat)
                                    compound  value
 1     CN=C1CN(O)C(c2ccccc2)=c2cc(Cl)ccc2=N1  0.984
 2  C[C@H](COc1ccccc1)N[C@H](C)[C@H](O)c1ccc(O)cc1   0.99
 3  CCC(CCC(C)C1CCC2C3CC=C4C[C@@H](OC(C)=O)CC[C@]4(C)C3CC[C@]12C)C(C)C (stereo partly specified)   0.96
 4                   COc1cc(C(=O)O)cc(OC)c1O  0.975
 5         COc1ccccc1-c1cc(=O)c2c(OC)cccc2o1  0.971
 6         COc1ccccc1-c1cc(=O)c2cccc(OC)c2o1  0.977
 7       C[C@@]12C(=O)OC(=O)[C@]1(C)C1CCC2O1  0.798
 8  CC(COc1ccccc1)N(CCCl)Cc1ccccc1 (stereo unspecified)   1.01
 9  CC(=O)Oc1cc(C)c2c(c1C(OC(C)=O)OC(C)=O)Oc1c(c(C)c(OC(C)=O)c3c1C(OC(C)=O)OC3=O)OC2=O (stereo unspecified)  0.991
10        O=C(O)c1cc(=O)c(O)c2c(O)c(O)ccc2c1   1.01
11  O=C(O)CCCCCCCCCCCCC1C=CCC1 (stereo unspecified)  0.999
